target-or-system: Adenosine receptor A2a (Homo sapiens) (UniProt P29274)
Sequence (P29274 whole entry): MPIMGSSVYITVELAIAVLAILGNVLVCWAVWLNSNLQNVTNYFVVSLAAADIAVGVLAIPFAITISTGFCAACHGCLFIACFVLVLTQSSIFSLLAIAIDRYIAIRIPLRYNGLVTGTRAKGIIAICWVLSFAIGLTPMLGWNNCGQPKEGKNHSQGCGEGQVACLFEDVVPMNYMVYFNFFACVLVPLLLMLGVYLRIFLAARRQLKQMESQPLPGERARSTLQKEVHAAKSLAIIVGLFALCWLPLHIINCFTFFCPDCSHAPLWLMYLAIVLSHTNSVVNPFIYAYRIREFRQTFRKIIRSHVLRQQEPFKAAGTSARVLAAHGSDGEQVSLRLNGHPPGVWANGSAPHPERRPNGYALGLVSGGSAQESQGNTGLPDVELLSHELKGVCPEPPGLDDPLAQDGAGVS
test-name: Displacement of [3H]CGS21680 from human recombinant adenosine A2A receptor expressed in HEK293 cells at 10 uM
Format: cell-based
measured-quantity: Activity (%)

Guide cases for Activity, answers given:
* O=C(c1ccccc1)N1CCC(c2nc3c(Nc4ccccc4)nc4ccccc4c3[nH]2)CC1 | 43.4
* Fc1cc(F)cc(Nc2nc3ccccc3c3[nH]c(C4CCCCC4)nc23)c1 | 17.2

[a] N[C@H]1CC[C@@H](c2nc3c(Nc4ccc(Cl)c(Cl)c4)nc4ccccc4c3[nH]2)CC1
[b] Clc1ccc(Nc2nc3ccccc3c3[nH]c([C@H]4C[C@H]5CC[C@@H]4C5)nc23)cc1Cl
Quick check, higher Activity between a and b ? Label of pick, please.
a

----------
target-or-system: Adenosine receptor A3 (Homo sapiens) (UniProt P0DMS8)
Sequence (P0DMS8 whole entry): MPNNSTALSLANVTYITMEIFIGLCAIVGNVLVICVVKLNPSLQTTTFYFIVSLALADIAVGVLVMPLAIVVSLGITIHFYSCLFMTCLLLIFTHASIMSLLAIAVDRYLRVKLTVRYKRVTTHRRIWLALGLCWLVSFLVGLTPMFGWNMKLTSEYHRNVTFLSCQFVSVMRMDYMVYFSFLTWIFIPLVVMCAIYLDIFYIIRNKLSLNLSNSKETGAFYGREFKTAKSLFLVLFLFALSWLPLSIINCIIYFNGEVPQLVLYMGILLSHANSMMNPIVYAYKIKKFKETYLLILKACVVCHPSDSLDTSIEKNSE
test-name: Decrease in dissociation of [125I]I-AB-MECA from human recombinant adenosine A3 receptor expressed in CHO cells at 10 uM after 60 mins relative to control
Format: cell-based
Parameters: scale not given: the % may be the effect or the level left
measured-quantity: Activity (%)

- FC(F)(F)c1cc(Nc2nc3ccccc3c3nc(C4CCCCC4)[nH]c23)cc(C(F)(F)F)c1: 137
- Fc1ccc(Nc2nc3ccccc3c3[nH]c(C4CCCCC4)nc23)cc1F: 187
- Fc1cc(F)cc(Nc2nc3ccccc3c3[nH]c(C4CCCCC4)nc23)c1: 188
